# TARGET_SYSTEM: UniProt:P11229
# TEST_DETAILS: Alphascreen Surefire phospho-ERK1/2 functional assay, M1
# Format: cell-based
# MEASUREMENT_CONDITIONS: CHO, read-out: % Emax cf. ACh, M1, CHO cells stably expressing human M1; relative to ACh
ASSAY_METRIC: Emax (%)

Worked cases, Emax given:
COMPOUND | UNIT_SYMBOL | Emax
CCOC(=O)N1CCC2(CC(N3CCC(c4ccn(C)n4)CC3)C2)C1 (single isomer, unassigned) [1-22 Isomer 2] | % | 47
CCOC(=O)N1CCC2(CC(N3CCC(N4CC(F)(F)C[C@@H]4C(=O)N(C)OC)CC3)C2)C1 (single isomer, unassigned) [2-92 Isomer 2] | % | 50
CCOC(=O)N1CCC2(CC(N3CCC(c4ncc(Cl)n4C)CC3)C2)C1 (single isomer, unassigned) [1-14 Isomer 2] | % | 66

P. CCOC(=O)N1CCC2(CC(N3CCC(c4ncco4)CC3)C2)C1 (single isomer, unassigned) [1-23 Isomer 2]
Q. CCOC(=O)N1CCC2(CC(N3CCC(N4CSC[C@@H]4C(=O)OC)CC3)C2)C1 (single isomer, unassigned) [2-97 Isomer 2]
Query string: Select the item whose Emax value is smaller, choosing between P and Q . Lab note: record the label of whichever item you select.
Result string: Q

###

# TARGET_SYSTEM: human muscarinic M1 receptor (Homo sapiens, UniProt P11229)
# Sequence (P11229 whole entry): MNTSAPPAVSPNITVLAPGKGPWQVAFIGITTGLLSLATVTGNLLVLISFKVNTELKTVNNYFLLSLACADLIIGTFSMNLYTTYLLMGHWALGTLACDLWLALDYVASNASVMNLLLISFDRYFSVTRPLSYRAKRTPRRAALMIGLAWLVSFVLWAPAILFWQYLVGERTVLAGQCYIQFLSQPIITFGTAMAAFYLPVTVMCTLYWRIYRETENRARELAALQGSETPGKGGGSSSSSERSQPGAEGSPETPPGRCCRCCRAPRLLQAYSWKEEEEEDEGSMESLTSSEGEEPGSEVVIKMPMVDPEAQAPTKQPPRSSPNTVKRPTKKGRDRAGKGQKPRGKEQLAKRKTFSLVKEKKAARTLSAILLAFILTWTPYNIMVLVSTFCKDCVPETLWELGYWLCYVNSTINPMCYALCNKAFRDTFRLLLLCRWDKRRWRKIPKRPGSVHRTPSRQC
# TEST_DETAILS: Alphascreen Surefire phospho-ERK1/2 functional assay, M1
# Format: cell-based
# MEASUREMENT_CONDITIONS: CHO cells stably expressing human M1; phospho-ERK1/2; * = variable results; read-out: pEC50 M1 (converted)
ASSAY_METRIC: EC50 (µM)

I. CCOC(=O)N1CCC2(CC(N3CCC([C@@H]4CCCN4CCC(F)(F)F)CC3)C2)C1 (single isomer, unassigned) [2-70 Isomer 1]
II. CCOC(=O)N1CCC2(CC(N3CCC([C@@H]4CCCN4C(=O)NCC(F)(F)F)CC3)C2)C1 (single isomer, unassigned) [2-26 Isomer 2]
Query string: Of I and II , whose reported EC50 is numerically smaller? Selection: enter the item's label.
Result string: II

1. CCOC(=O)N1CCC2(CC(N3CCC(c4nnnn4C4CC4)CC3)C2)C1 (single isomer, unassigned) [1-67 Isomer 2]
2. CCOC(=O)N1CCC2(CC(N3CCC(c4nnc(CC)[nH]4)CC3)C2)C1 (single isomer, unassigned) [1-27 Isomer 2]
3. CCOC(=O)N1CCC2(CC(N3CCC([C@@H]4CCCN4C(=O)NCC(F)F)CC3)C2)C1 (single isomer, unassigned) [2-45 Isomer 2]
Query string: Ordering: ascending EC50. Returns: the labels listed in the requested order.
Result string: 3, 2, 1
(3: 0.251 µM, 2: 1 µM, 1: 3.16 µM)

I. CCOC(=O)N1CCC2(CC(N3CCC(c4c(C)cc[nH]c4=O)CC3)C2)C1 (single isomer, unassigned) [3-14 Isomer 1]
II. CCOC(=O)N1CCC2(CC(N3CCC(c4nc(C)no4)CC3)C2)C1 (single isomer, unassigned) [1-29 Isomer 2]
Query string: Among I and II , whose measured EC50 is the smaller figure? Return value: the label identifying the chosen record.
Result string: II
(II: 0.794 µM, I: 3.16 µM)
